Tested on: aorta
protocolConditions: ApoE mice, 60 min post injection, uptake ratio
Lab note: compare aorta:blood against 6. Equal or greater, write yes (1). Smaller, write no (0).

Could you verify whether the entry [153Gd+3].[NH3+][C@H](CC1CCCCC1)C(=O)NOCCCCCCNC(=O)CN(CCN(CC(=O)[O-])CC(=O)[O-])CCN(CC(=O)[O-])CC(=O)[O-] [Example 42] shows aorta:blood of no less than 6?
yes (1)

Could you verify whether the entry N[C@H](Cc1ccc(CNC(=O)CN2CCN(CC(=O)[O-])CCN(CC(=O)[O-])CCN(CC(=O)[O-])CC2)cc1)C(=O)NOCc1ccccc1.[153Gd+3] [Example 55] shows aorta:blood of no less than 6?
no (0)

Could you verify whether the entry [153Gd+3].[NH3+][C@H](CCc1ccccc1)C(=O)NOc1ccc(CNC(=O)CN(CCN(CC(=O)[O-])CC(=O)[O-])CCN(CC(=O)[O-])CC(=O)[O-])cc1 [Example 47] shows aorta:blood of no less than 6?
no (0)

Could you verify whether the entry [153Gd+3].[NH3+][C@H](Cc1ccc(-c2ccccc2)cc1)C(=O)NOCCCCCCNC(=O)CN(CCN(CC(=O)[O-])CC(=O)[O-])CCN(CC(=O)[O-])CC(=O)[O-] [Example 41] shows aorta:blood of no less than 6?
yes (1)

Could you verify whether the entry [153Gd+3].[NH3+][C@H](Cc1c[nH]c2ccccc12)C(=O)NOCCCc1ccc(CNC(=O)CN(CCN(CC(=O)[O-])CC(=O)[O-])CCN(CC(=O)[O-])CC(=O)[O-])cc1 [Example 43] shows aorta:blood of no less than 6?
no (0)

Could you verify whether the entry CC(C)C[C@@H]([NH3+])C(=O)NOCCc1ccc(CNC(=O)CN(CCN(CC(=O)[O-])CC(=O)[O-])CCN(CC(=O)[O-])CC(=O)[O-])cc1.[153Gd+3] [Example 49] shows aorta:blood of no less than 6?
no (0)

Could you verify whether the entry [153Gd+3].[NH3+][C@H](Cc1ccccc1)C(=O)NOCc1ccc(CNC(=O)CN(CCN(CC(=O)[O-])CC(=O)[O-])CCN(CC(=O)[O-])CC(=O)[O-])cc1 [Example 58] shows aorta:blood of no less than 6?
yes (1)

Could you verify whether the entry CC(C)C[C@@H](N)C(=O)NOCc1ccc(CNC(=O)CN2CCN(CC(=O)[O-])CCN(CC(=O)[O-])CCN(CC(=O)[O-])CC2)cc1.[153Gd+3] [Example 59] shows aorta:blood of no less than 6?
no (0)

Could you verify whether the entry [153Gd+3].[NH3+][C@H](CCc1ccccc1)C(=O)NOCCCc1ccc(CNC(=O)CN(CCN(CC(=O)[O-])CC(=O)[O-])CCN(CC(=O)[O-])CC(=O)[O-])cc1 [Example 44] shows aorta:blood of no less than 6?
no (0)

Could you verify whether the entry CC(C)C[C@@H]([NH3+])C(=O)NOCCCCCCNC(=O)CN(CCN(CC(=O)[O-])CC(=O)[O-])CCN(CC(=O)[O-])CC(=O)[O-].[153Gd+3] [Example 40] shows aorta:blood of no less than 6?
no (0)

Could you verify whether the entry CONC(=O)C(CCc1ccccc1)NCc1ccc(CNC(=O)CN2CCN(CC(=O)[O-])CCN(CC(=O)[O-])CCN(CC(=O)[O-])CC2)cc1.[153Gd+3] (centres unmarked) [Example 52] shows aorta:blood of no less than 6?
no (0)

Could you verify whether the entry [153Gd+3].[NH3+][C@H](Cc1cc2ccccc2[nH]1)C(=O)NOCc1ccc(CNC(=O)CN(CCN(CC(=O)[O-])CC(=O)[O-])CCN(CC(=O)[O-])CC(=O)[O-])cc1 [Example 61] shows aorta:blood of no less than 6?
yes (1)

Could you verify whether the entry [153Gd+3].[NH3+][C@H](Cc1ccc2ccccc2c1)C(=O)NOCc1ccc(CNC(=O)CN(CCN(CC(=O)[O-])CC(=O)[O-])CCN(CC(=O)[O-])CC(=O)[O-])cc1 [Example 57] shows aorta:blood of no less than 6?
no (0)

* * *

System: aorta
protocolConditions: ApoE mice, 60 min post injection, uptake ratio
propertyLabel: aorta:heart
Returns: the value as a bare number; no unit string appended.

Assign aorta:heart to the following record: O=C([O-])CN1CCN(CC(=O)[O-])CCN(CC(=O)NCc2ccc(CNC(CCc3ccccc3)C(=O)NOCc3ccccc3)cc2)CCN(CC(=O)[O-])CC1.[153Gd+3] (centres unmarked) [Example 53]
4.2

Assign aorta:heart to the following record: [153Gd+3].[NH3+][C@@H](CCc1ccccc1)C(=O)NOCc1ccc(CNC(=O)CN(CCN(CC(=O)[O-])CC(=O)[O-])CCN(CC(=O)[O-])CC(=O)[O-])cc1 [Example 39]
13.6

Assign aorta:heart to the following record: [153Gd+3].[NH3+][C@H](CCc1ccccc1)C(=O)NOCCCCCCNC(=O)CN(CCN(CC(=O)[O-])CC(=O)[O-])CCN(CC(=O)[O-])CC(=O)[O-] [Example 45]
12.1

Assign aorta:heart to the following record: [153Gd+3].[NH3+][C@H](Cc1ccc(-c2ccccc2)cc1)C(=O)NOCCCCCCNC(=O)CN(CCN(CC(=O)[O-])CC(=O)[O-])CCN(CC(=O)[O-])CC(=O)[O-] [Example 41]
20.4

Assign aorta:heart to the following record: [153Gd+3].[NH3+][C@H](Cc1cc2ccccc2[nH]1)C(=O)NOCc1ccc(CNC(=O)CN(CCN(CC(=O)[O-])CC(=O)[O-])CCN(CC(=O)[O-])CC(=O)[O-])cc1 [Example 61]
20.4

* * *

Tested on: aorta
protocolConditions: ApoE mice, 60 min post injection, uptake ratio
Description: The apolipoprotein E (ApoE) knockout mouse is a model of hypercholesterolemia that develops atherosclerotic lesions in the brachiocephalic artery, the aortic arch and the abdominal aorta. Mice were fed a high-fat diet to accelerate plaque formation and compounds were tested in the mice between 35-42 weeks on diet. […] All samples were weighed and assayed for radioactivity; uptake is expressed as a percentage of injected dose per gram of tissue (% ID/g).
I'd be grateful if you could share measured aorta:heart for these entries.
Returns: the value as a bare number; no unit string appended.

Assign aorta:heart to the following record: [153Gd+3].[NH3+][C@H](CCc1ccccc1)C(=O)NOCc1ccc(CNC(=O)CN(CCN(CC(=O)[O-])CC(=O)[O-])CCN(CC(=O)[O-])CC(=O)[O-])cc1
16.2

Assign aorta:heart to the following record: [153Gd+3].[NH3+][C@H](Cc1ccc(O)cc1)C(=O)NOCc1ccc(CNC(=O)CN(CCN(CC(=O)[O-])CC(=O)[O-])CCN(CC(=O)[O-])CC(=O)[O-])cc1
13.0

Assign aorta:heart to the following record: [153Gd+3].[NH3+][C@H](CCc1ccccc1)C(=O)NOCCCc1ccc(CNC(=O)CN(CCN(CC(=O)[O-])CC(=O)[O-])CCN(CC(=O)[O-])CC(=O)[O-])cc1
12.5

Assign aorta:heart to the following record: N[C@H](Cc1ccc2ccccc2c1)C(=O)NOCc1ccc(CNC(=O)CN2CCN(CC(=O)[O-])CCN(CC(=O)[O-])CCN(CC(=O)[O-])CC2)cc1.[153Gd+3]
25.2

Assign aorta:heart to the following record: [153Gd+3].[NH3+][C@H](Cc1ccccc1)C(=O)NOCc1ccc(CNC(=O)CN(CCN(CC(=O)[O-])CC(=O)[O-])CCN(CC(=O)[O-])CC(=O)[O-])cc1
17.9

Assign aorta:heart to the following record: CC(C)C[C@@H]([NH3+])C(=O)NOCCc1ccc(CNC(=O)CN(CCN(CC(=O)[O-])CC(=O)[O-])CCN(CC(=O)[O-])CC(=O)[O-])cc1.[153Gd+3]
22.9

Assign aorta:heart to the following record: CONC(=O)C(CCc1ccccc1)NCc1ccc(CNC(=O)CN2CCN(CC(=O)[O-])CCN(CC(=O)[O-])CCN(CC(=O)[O-])CC2)cc1.[153Gd+3] (centres unmarked)
9.2

Assign aorta:heart to the following record: CC(C)C[C@@H]([NH3+])C(=O)NOc1ccc(CNC(=O)CN(CCN(CC(=O)[O-])CC(=O)[O-])CCN(CC(=O)[O-])CC(=O)[O-])cc1.[153Gd+3]
4.9

Assign aorta:heart to the following record: CONC(=O)[C@H](N)Cc1ccc(CNC(=O)CN2CCN(CC(=O)[O-])CCN(CC(=O)[O-])CCN(CC(=O)[O-])CC2)cc1.[153Gd+3]
5.3

Assign aorta:heart to the following record: CC(C)C[C@@H](N)C(=O)NOCc1ccc(CNC(=O)CN2CCN(CC(=O)[O-])CCN(CC(=O)[O-])CCN(CC(=O)[O-])CC2)cc1.[153Gd+3]
15.4

Assign aorta:heart to the following record: CC(C)C[C@@H]([NH3+])C(=O)NOCc1ccc(CNC(=O)CN(CCN(CC(=O)[O-])CC(=O)[O-])CCN(CC(=O)[O-])CC(=O)[O-])cc1.[153Gd+3]
21.2
